In this section we review reported Flk Kinase % Inhibition (P.110) values for a set of molecules.
test system: FLK-1 receptor; assay: FLK-1 Assay (cellular/catalytic ELISA, VEGF-stimulated phosphotyrosine); format: cell-based; set-up: concentration or dose not given beside the values
// return numeric value only (unit: %, not printed)

>>> observed_measurement("Cc1c(Br)cc(Br)c2c1C(=Cc1cc3c(cc1Cl)OCO3)C(=O)N2")
"−4.4"
>>> observed_measurement("Cc1c(Br)ccc2c1C(=Cc1ccccc1Cl)C(=O)N2")
7.2
>>> observed_measurement("CCN(CC)c1ccc(C=C2C(=O)Nc3ccc(Br)c(C)c32)c(O)c1")
"−10.3"
>>> observed_measurement("Cc1c(Br)cc(Br)c2c1C(=Cc1ccc(O)cc1)C(=O)N2")
2.4
>>> observed_measurement("CCN(CC)c1ccc(C=C2C(=O)Nc3c(Br)cc(Br)cc32)c(O)c1")
9.1
>>> observed_measurement("O=C1Nc2ccc(S(=O)(=O)N3CCOCC3)cc2C1=Cc1ccc(F)c(F)c1")
11.0

Observed Flk Kinase % Inhibition (P.110) on FLK-1 receptor, entry O=C1Nc2ccc(S(=O)(=O)N3CCOCC3)cc2C1=Cc1ccccc1F , equals 7.4

Flk Kinase % Inhibition (P.110) for FLK-1 receptor with input COc1cc(OC)c(OC)cc1C=C1C(=O)Nc2c(Br)cc(Br)c(C)c21 equals 11.5

Record Cc1c(Br)cc(Br)c2c1C(=Cc1cc(Br)c(OCc3ccccc3)c(C(C)(C)C)c1)C(=O)N2 / FLK-1 receptor, Flk Kinase % Inhibition (P.110) recorded as 12.6

Cc1c(Br)ccc2c1C(=Cc1cc(C(F)(F)F)cc(C(F)(F)F)c1)C(=O)N2 tested on FLK-1 receptor gave Flk Kinase % Inhibition (P.110): 18.2

Tested on FLK-1 receptor: Cc1c(Br)ccc2c1C(=Cc1ccc(Cl)cc1Cl)C(=O)N2 . Observed Flk Kinase % Inhibition (P.110): 21.0

Item: CCN(CC)c1ccc(C=C2C(=O)Nc3c(Br)cc(Br)c(C)c32)cc1 | System: FLK-1 receptor | Flk Kinase % Inhibition (P.110): −1.2

FLK-1 receptor data for CSc1ccc(C=C2C(=O)Nc3c(Br)cc(Br)c(C)c32)s1 ; its Flk Kinase % Inhibition (P.110): −2.9

The reported Flk Kinase % Inhibition (P.110) value, FLK-1 receptor, for CNS(=O)(=O)c1ccc2c(c1)C(=Cc1cccc(OC)c1)C(=O)N2 reads −11.6

Record for Cc1c(Br)ccc2c1C(=Cc1ccc(Br)s1)C(=O)N2 under target or system FLK-1 receptor: Flk Kinase % Inhibition (P.110) reported as 6.3

====

target: Met receptor (EGFR/Met chimeric cells, EMR) (Homo sapiens, UniProt P08581); construct: expressed in transfected cells; the other entry of the earlier key: EGFR (P00533, Epidermal growth factor receptor); experiment: Met Autophosphorylation Assay; assay type: biochemical
Sequence (P08581 with tags, fused parts or gaps): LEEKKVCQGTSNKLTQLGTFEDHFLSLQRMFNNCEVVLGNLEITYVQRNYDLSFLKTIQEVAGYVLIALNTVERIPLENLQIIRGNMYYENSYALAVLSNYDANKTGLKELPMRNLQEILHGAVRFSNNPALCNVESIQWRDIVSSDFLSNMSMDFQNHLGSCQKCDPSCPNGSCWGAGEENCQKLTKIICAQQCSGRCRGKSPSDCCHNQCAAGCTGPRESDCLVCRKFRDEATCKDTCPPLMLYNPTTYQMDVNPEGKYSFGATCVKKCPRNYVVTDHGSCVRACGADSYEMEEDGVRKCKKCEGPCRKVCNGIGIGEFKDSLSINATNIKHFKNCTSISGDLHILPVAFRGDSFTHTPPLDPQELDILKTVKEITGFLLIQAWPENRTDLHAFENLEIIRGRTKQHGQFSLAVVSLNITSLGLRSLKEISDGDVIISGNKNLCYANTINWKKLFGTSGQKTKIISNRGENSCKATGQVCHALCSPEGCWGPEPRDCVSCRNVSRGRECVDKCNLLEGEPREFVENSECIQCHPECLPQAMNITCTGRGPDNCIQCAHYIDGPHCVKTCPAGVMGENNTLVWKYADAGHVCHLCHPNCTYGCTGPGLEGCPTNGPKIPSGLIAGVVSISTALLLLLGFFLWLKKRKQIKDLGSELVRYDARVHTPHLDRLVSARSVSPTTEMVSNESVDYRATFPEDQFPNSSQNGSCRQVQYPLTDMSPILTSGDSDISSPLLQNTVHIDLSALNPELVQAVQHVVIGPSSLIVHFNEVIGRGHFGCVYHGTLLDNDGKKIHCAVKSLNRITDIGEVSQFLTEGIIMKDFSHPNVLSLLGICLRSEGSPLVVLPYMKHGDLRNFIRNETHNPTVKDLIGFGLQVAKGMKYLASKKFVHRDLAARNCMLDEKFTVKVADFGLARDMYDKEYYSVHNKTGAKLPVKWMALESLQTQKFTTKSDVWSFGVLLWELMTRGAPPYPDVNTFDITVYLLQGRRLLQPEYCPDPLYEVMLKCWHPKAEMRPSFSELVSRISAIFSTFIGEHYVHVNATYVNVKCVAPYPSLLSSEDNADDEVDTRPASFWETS
# Met Kinase % Inhibition (P.130) values compiled below
Response body: numeric value in %, unit text excluded.

Summary for this compound, COc1ccc(C=C2C(=O)Nc3c(Br)cc(Br)c(C)c32)c2ccccc12 : Met Kinase % Inhibition (P.130) is 2.8

Value of measured Met Kinase % Inhibition (P.130) for the entry CNS(=O)(=O)c1ccc2c(c1)C(=Cc1ccc([N+](=O)[O-])cc1)C(=O)N2 : 30.6

Cc1c(Br)ccc2c1C(=Cc1cc(Br)cc(Br)c1O)C(=O)N2 yielded Met Kinase % Inhibition (P.130) of 96.8

Briefly, Met Kinase % Inhibition (P.130) measured for Cc1c(Br)cc(Br)c2c1C(=Cc1ccc(Br)cc1)C(=O)N2 : 23.0

Note to self: Met Kinase % Inhibition (P.130) recorded for CCOC(=O)c1[nH]c(C=C2C(=O)Nc3c(Br)cc(Br)c(C)c32)c(C(=O)OC)c1C was 44.8

The compound CCc1ccc(C=C2C(=O)Nc3ccc(S(=O)(=O)NC)cc32)cc1 showed Met Kinase % Inhibition (P.130) equal to 14.1

So for O=C1Nc2ccc(S(=O)(=O)N3CCOCC3)cc2C1=Cc1ccc(Cl)cc1 , the logged Met Kinase % Inhibition (P.130) turned out to be 69.4

Entry Cc1c(Br)cc(Br)c2c1C(=Cc1c(O)cc(O)cc1O)C(=O)N2 — recorded Met Kinase % Inhibition (P.130) = 100.5

Where do these numbers come from? They come from patent US20020026053A1.
